# credit: PubChem BioAssay

viability values for the compounds below.
# method: growth suppression of PTEN-deleted HCT116, pilot screen, cell-based, HCT116 clonal line, CellTiter-Glo (AID 824);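 further: 0% = 20 µM Hyamine control and 100% = vehicle cell control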
# experimental-context: 60 h, at 10 µM, hits give low values
Records with an inconclusive call do not appear.
The figure you give is taken to be in %; do not add the unit.

Record COc1cc2c(cc1OC)C(c1ccco1)CC(=O)N2 (stereo unspecified) . Reported viability: 101

Record CCOC(=O)C1C(=O)OC2(CCOC(C)(C)C2)C1C(=O)OCC (stereo unspecified) . Reported viability: 100

Record `CCOc1cc(C(=O)NCCN2CCOCC2)cc(OCC)c1OCC` . Reported viability: 96.4

Alright, here's another compound for you.
Record O=C1CSC(c2nn(-c3ccccc3)cc2-c2cc3ccccc3oc2=O)N1Cc1ccco1 (stereo unspecified) . Reported viability: 76.9

---

# method: growth suppression of PTEN-deleted HCT116, pilot screen, cell-based, HCT116 clonal line, CellTiter-Glo (AID 824);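 further: 0% = 20 µM Hyamine control and 100% = vehicle cell control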
# experimental-context: 60 h, at 10 µM, hits give low values
Results filed as inconclusive are left out.
quantity-measured: viability (%)
The figure you give is taken to be in %; do not add the unit.

Known viability results, listed for orientation:
Record CCOc1ccc(C2c3c(oc4cc(C)c(C)cc4c3=O)C(=O)N2CCCN2CCOCC2)cc1 (stereo unspecified) . Reported viability: 94.6

Record `CC(C)Cc1ccc(C#N)c(SCC(N)=O)n1` . Reported viability: 92.1

Record `COc1ccc(OC)c(CNC(=O)Cc2c(C(=O)O)[nH]c3ccccc23)c1` . Reported viability: 101

Record `COC(=O)c1c(NC(=O)CCN2CCOCC2)sc2c1CCCC2` . Reported viability: 89.7

Record `CCSc1nnc(NC(=O)CC)s1` . Reported viability: 99

Alright, here's another compound for you.
Record CCC(C)Sc1nc2c(c(=O)[nH]c(=O)n2C)n1Cc1ccccc1Cl (stereo unspecified) . Reported viability: 82.2

---

growth inhibition values for the molecules below.
# method: OD615 S. cerevisiae growth inhibition, permissive medium, pilot counter-assay, permissive growth control for S. cerevisiae lifespan shortening project (AID 705)
# experimental-context: OD615, 24 h, at 10 µM, hits give high values
The figure you give is taken to be in %; do not add the unit.

Known growth inhibition results, listed for orientation:
Record `CCc1cc(=O)oc2cc(OCC(=O)N(CC)CC)c(Cl)cc12` . Reported growth inhibition: 6.47

Record `Brc1cnc(N2CCCC2)nc1N1CCCCC1` . Reported growth inhibition: -5.12

Record CCc1ccc(-c2nc(CN3CCCC(C(=O)O)C3)c(C)o2)cc1 (stereo not given) . Reported growth inhibition: 2.06

Record `Cc1ccc(-c2nn(C)c(=O)c3ccccc23)cc1S(=O)(=O)N1CCCC1` . Reported growth inhibition: -1.23

Record O=C(Nc1ccc(S(=O)(=O)N2CCCC2)cc1)C1COc2ccccc2O1 (stereo not given) . Reported growth inhibition: -10.9

Others:
Record COc1cc(C(c2sc3nc(C)nn3c2O)N2CC(C)OC(C)C2)cc(OC)c1OC (stereo not given) . Reported growth inhibition: -0.68

Record `CCn1cc(C(=O)Nc2ccc3c(c2)OCCO3)c2cc(OC)c(OC)cc2c1=O` . Reported growth inhibition: -10

Record `O=C(CSc1nnc(Cc2cc(=O)[nH]c(=O)[nH]2)n1-c1ccc(F)cc1)N1CCCCC1` . Reported growth inhibition: -4.41

Record COc1ccc(-n2c(SCC(=O)Nc3nccs3)nc3c(c2=O)SC(C)C3)cc1 (stereo not given) . Reported growth inhibition: -7.21

Record CC1CC(C)CN(CCCNC(=O)CNC(=O)Cn2ccc3ccccc3c2=O)C1 (stereo not given) . Reported growth inhibition: -3

---

# method: inhibitors of the yeast RAM network, pilot screen, dse1pr::URA3 reporter, 5-FOA selection (AID 869);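 further: 0% = DMSO wells with no growth and 100% = 10 µM 1-NA-PP1 with full growth; RAM network block rescues cells from 5-FOA so hits raise OD615 growth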
# experimental-context: S. cerevisiae dse1pr::URA3 5-FOA growth, OD615, 2 d; at 10 µM; hits give high values; strain carries analog-sensitive mutant Cbk1 kinase
inhibition values for the molecules below.
The figure you give is taken to be in %; do not add the unit.

Known inhibition results, listed for orientation:
Record `CC(=O)Nc1cccc(N(C)C)c1` . Reported inhibition: 1.44

Record O=C(Cn1ncc2c(=O)oc3ccccc3c21)NCC1COc2ccccc2O1 (configuration not stated) . Reported inhibition: 2.72

Record `COCCn1c(=O)[nH]c2cc(C(=O)NCCN3CCN(c4ccccc4)CC3)ccc2c1=O` . Reported inhibition: 1.11

Record CCOC(=O)C1CCCN(C(=O)c2cn(CC(C)C)c(=O)c3cc(OC)c(OC)cc23)C1 (configuration not stated) . Reported inhibition: 0.555

Record `CCOC(=O)C1=C(O)CSC1=Nc1ccc(Cl)cc1` . Reported inhibition: 1.17

Others:
Record CCOC(=O)C1=C(C)NC(=O)NC1c1c(O)ccc2ccccc12 (configuration not stated) . Reported inhibition: 0.77

Record O=C(Nc1ccc2c(c1)OCO2)C1CCCN1C(=O)OCc1ccccc1 (configuration not stated) . Reported inhibition: 1.32

Record `COc1cc(C(=O)Oc2ccccc2N)cc(OC)c1OC` . Reported inhibition: -0.31

Record `COc1ccc(OC)c(S(=O)(=O)NCCc2cn3ccsc3n2)c1` . Reported inhibition: 3.81

Record COc1ccc(CN2CC34C=CC(O3)C(C(=O)O)C4C2=O)cc1 (configuration not stated) . Reported inhibition: 0.585

Record `COc1ccc(N(C)S(=O)(=O)c2cccc(C(=O)NC3=NCCS3)c2)cc1` . Reported inhibition: 1.13

Record `COc1cccc(-c2nc(C(N)=O)c3[nH]c(=O)n(-c4ccccc4)c3n2)c1OC` . Reported inhibition: 3.04

Record O=C(O)CC1C(=O)NCCN1Cc1ccc(F)c(F)c1 (configuration not stated) . Reported inhibition: 3.32

Record COc1ccc(C2C(C(=O)N3CCN(c4ccc(OC)cc4)CC3)c3ccccc3C(=O)N2C)cc1 (configuration not stated) . Reported inhibition: 0.215

Record CC(C)C(NS(=O)(=O)c1ccc2c(c1)oc(=O)n2C)C(=O)N1CCN(C2CCCCC2)CC1 (configuration not stated) . Reported inhibition: 0.14

Record `CC(C)C(=O)Nc1c(C(=O)c2ccc(F)cc2)oc2ccccc12` . Reported inhibition: 1.55

Record `COC(=O)c1ccc(-c2nc(-c3cccs3)no2)cc1` . Reported inhibition: 2.32

Record Cc1ccc(/C(O)=C2/C(=O)C(=O)N(CCN3CCOCC3)C2c2cccnc2)cc1 (configuration not stated) . Reported inhibition: -0.11

Record COc1cccc(-c2nc(CS(=O)CC(=O)NCc3ccccc3Cl)c(C)o2)c1 (configuration not stated) . Reported inhibition: 0.79

Record `Cc1cccc(NC(=O)CN2C(=O)COc3ccc(Cl)cc32)c1C` . Reported inhibition: 2.24

Record O=C(C1CCCN(S(=O)(=O)c2cccc3cccnc23)C1)N1CCN(c2ccc(F)cc2)CC1 (configuration not stated) . Reported inhibition: -0.585

Record `c1ccc2c(c1)[nH]c1nc3nncn3nc12` . Reported inhibition: 1.29

---

# method: inhibitors of the yeast RAM network, pilot screen, dse1pr::URA3 reporter, 5-FOA selection (AID 869);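 further: 0% = DMSO wells with no growth and 100% = 10 µM 1-NA-PP1 with full growth; RAM network block rescues cells from 5-FOA so hits raise OD615 growth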
# experimental-context: S. cerevisiae dse1pr::URA3 5-FOA growth, OD615, 2 d; at 10 µM; hits give high values; strain carries analog-sensitive mutant Cbk1 kinase
quantity-measured: inhibition (%)
The figure you give is taken to be in %; do not add the unit.

Known inhibition results, listed for orientation:
Record CCCN1C(=O)c2cc(C(=O)Nc3ccccc3CC)ccc2C1O (configuration not stated) . Reported inhibition: 0.77

Record `CCOC(=O)C1CCN(C(=O)CN(c2ccc(OC)c(OC)c2)S(=O)(=O)c2ccccc2)CC1` . Reported inhibition: 1.19

Record `O=C(CCSCCC(=O)NCc1cccs1)NCc1cccs1` . Reported inhibition: 3.47

Record CCN1CCN(Cc2ccc(NC(=O)CC3Oc4ccc(C)cc4NC3=O)cc2)CC1 (configuration not stated) . Reported inhibition: 0.29

Record `COc1cccc(C(=O)NCCn2ccc3ccccc32)c1` . Reported inhibition: 0.825

Others:
Record `O=C(CSc1nc2c(cnn2-c2ccc(F)cc2)c(=O)[nH]1)N1CCOCC1` . Reported inhibition: 3.16

Record `O=C(NCc1ccco1)c1nnc(Cc2ccc(F)cc2)o1` . Reported inhibition: 1.21

Record N#CC1=C(N)SC(N)=C(C#N)C1C1CC=CCC1 (configuration not stated) . Reported inhibition: 2.11

Record `Cc1nc(CNS(=O)(=O)c2ccc3ccccc3c2)cs1` . Reported inhibition: 2.13

Record `CC(=O)NCC(=O)OCC(=O)c1ccc(C)cc1` . Reported inhibition: 1.21

Record COc1cccc(CNC(=O)c2ccc(NC(=O)C3CCCO3)cc2)c1 (configuration not stated) . Reported inhibition: 1.14

Record `O=C(NCc1ccc2c(c1)OCO2)c1nnc(Cc2ccc(Cl)cc2)o1` . Reported inhibition: 2.2
